- ASSAY TEXT: folding stability dG unfold (combined trypsin and chymotrypsin); higher = more stable
Listed here are sequences together with their documented folding stability dG unfold.
READOUT NAME: folding stability dG unfold (kcal/mol)

{"columns": ["SEQUENCE DATA", "LT GT EQ", "REPORTED"],
 "data": [
  ["SAMDLSTLPPSTSVTPSTSSLPGNLSRSTYTLTTRDPETGALTVTTVTTYTDPSSSSTTVTPSTTLLPASAG [r14_307_JUSTAS]", "=", 0.00104],
  ["SAGGMLITEEDLAALLAAVPPERPDAVVTLTVGRLQRILPGSTGENEPIPSSVEPSVVTLPVTVPPASAGGS [r16_708_JUSTAS]", "<", -1],
  ["SAGGMKVTTKPLPSDSEVVDIPGGVTMKIDPKTGVGTITLPDGKTLKMTITKDPNKNTTTITITPESSAGGS [r8_186_JUSTAS]", "=", 0.998],
  ["SMTIKELLKAHPGQPVEDLAKRIMDEMNANFPNGMPIKINLEYDPGGIKVDVEMWNNDKPQTDEFTIRPDSA [r9_805_TrROS]", "=", -0.000922],
  ["SAGGMPIKELTAEEIAALLKEKLGVDVEIEEVKVTVERDENGNYVLRIEVKFKETNETITLEIVLPKSAGGS [r16_42_TrROS_Hall]", "=", 3.86],
  ["SAGGSAGGSMKITKTEEGVYLVEFTLPDGTPLVIPFPTDDPFLTEEQAVEIAKPIAAAFAAAGSAGGSAGGS [r12_642_TrMRF]", "=", 1.22],
  ["SAGGSAKIVIKPDGTIEVEVNGKTFTFPPGAEIEIEEKDGELVLRIRLFNKDGKEVEEFEVTVRIESAGGSA [r15_424_TrROS_Hall]", "=", 5.48],
  ["SAANPKDIVKAEIEIPGKYGAKFTVYTLPDGTVIVPAEVTLIEGDKPVKKPLVLVVDASTGKILAIADASAG [r14_630_TrMRF]", "=", 1.46],
  ["RTISIDEIREKLGMDPDDLKNMPMEEIADEIRDELPPGRAKGVKISPNEDDGMWTITVKYKNGRPVEITIDS [r1_340_TrROS]", "=", 0.156],
  ["SGPGEEEVAKRAAAEAAPTPDVREVTEEVEIVVPGTGEKVVVPVTALRLPDGTIVPLPEEEIRAIAEKLLSA [r9_1056_JUSTAS]", "=", 0.771],
  ["SMREIPPEDLKKAANAYLNGDKEKVEQLFKDAGFKKVVLEEVEGDGEVLFVALVEHPDGPTVLTVSSSDFSA [r9_783_TrMRF]", "=", 1.04],
  ["SAGGSAGGSAPGSMLRIPVSEEELKKKGLTPEELAKEIRERYPELPESVVVEFPPDGNIVIVESAGGSAGGS [r12_50_JUSTAS]", "=", 1],
  ["SAGGSAGGSEYYIYIQIDKNGKIEIVDVVPPGEPMEDMPPEQYDHTIMFPFESPEDALAEILKSAGGSAGGS [r12_452_TrROS]", "=", 0.719],
  ["LKITLPGGAEVTEIDDIKVSSDGYIELNVRVRNPDNDVEVPVPVYIPVPPVPPVPVKVSFIPGTGKLVVDDS [r1_411_TrMRF]", "<", -1],
  ["SAVVLKEPGPVTTVVTTDPATGVTTTVTTDPSAGTTTVTTTDPASAAVTTTTYTTLPDGTPVPTTTTTPASA [r9_1073_JUSTAS]", "=", 1.05],
  ["SAMITVEIVDPLPDIANLSEEEAKALAEELAEEYAKKKFPNENVKITKVEVELEPETPEIRVTVTLELKSAG [r14_310_JUSTAS]", "=", 2.37],
  ["SAGIKEIAKKLGFPIHSVKPTEPDPENGKLKWTVIFRNEKNNYYVIEIDLDDPEKIEIERFPPGEEIPSAGG [r19_72_TrROS]", "=", 1.39],
  ["SAGGMTITVKPPDGTVITYTSETLPEIIAKLDPNGTYTITIEVPKVDPSNGGARPIVKTYTVPKERISAGGS [r16_806_JUSTAS]", "=", 1.19],
  ["SAGGSAGGSANVEVHPNPDGHVMVKIEMRMYRYDPDGKPKGPVEIKRSIHVDSPEEAKEFFSAGGSAGGSAG [r3_232_TrROS]", "<", -1],
  ["SAGGPWHEQKHEITDPDDGKPIKISHTHYPDGYPRVRIELNNGKKIEFMVPPNGPPTPDQLLDAIKQFSAGG [r13_492_TrROS]", "=", 0.478],
  ["SAGGSAGGSAGGSERHTAVLVDTGFRISPAPEEGGLRLEAGASLTIREVPEDALKEVLGSAGGSAGGSAGGS [r4_274_TrMRF]", "<", -1]
]}

----------
- ASSAY TEXT: folding stability dG unfold from trypsin proteolysis; higher = more stable
Label satisfied when folding stability dG unfold is at or above 1 kcal/mol; anything below gets not satisfied.

{"columns": ["SEQUENCE DATA", "CLASS NAME"],
 "data": [
  ["SAGGSAEEARALAEQVREEVRAAHAPDEVVTVTVELPDGTRVEVTFDAAGEVLSVTIYRPDGTPELSAGGSA [r2_84_JUSTAS]", "satisfied"],
  ["SAGGSAGGSAGMPIEKALEQADKNGRPVQIRVPNGRDIYITVKYKNGKYKIEIMPAEEIKSAGGSAGGSAGG [r17_463_TrROS]", "satisfied"],
  ["SAGGSAGGSAGDPKKKPPKPILGFELAEFEITTEDGTKYKVKALIIYFPDTGTKVIFVLGSAGGSAGGSAGG [r11_1024_TrMRF]", "satisfied"],
  ["SAGGKLTPEEIEELAKKLAEELRKEGKEVEIEVEIEVDGKLIKIKMKIDPKTKKIEIVKIEVYPKEDLSAGG [r13_37_TrROS_Hall]", "satisfied"],
  ["SAGGSAGGSAGMTIQIEILTTGDLEETKKKLEEELKKKYPSSLKVIIKLSHVPASEAPSDLGSAGGSAGGSA [r18_498_JUSTAS]", "not satisfied"]
]}

----------
- ASSAY TEXT: folding stability dG unfold from chymotrypsin proteolysis; higher = more stable
Label yes (1) when folding stability dG unfold is at or above 2 kcal/mol; anything below gets no (0).

{"columns": ["SEQUENCE DATA", "CLASS NAME"],
 "data": [
  ["SAGGKVKALIIPAPDEPGKPVYLKIIHPDGEIVYPLPNDITEEEAKAAAIELGEENGLDLDEIEIAESAGGS [r16_753_TrMRF]", "no (0)"],
  ["MTEKKEESLGEKKRITTTKPQEDGNPVVTERIIDPNGTIEKVIVKKSSPNKPTTEELPPFSTSNKEIVEKLS [r1_301_JUSTAS]", "no (0)"],
  ["SAGGSAGGTSVADELEEEFKAKGYPAEVTVTKLPDDTTLVTVTVTDPKTGKSTTTTVTVSPAEASAGGSAGG [r6_692_JUSTAS]", "no (0)"],
  ["MTTETLEEEEIPEEGIRIETVRTTDASGKPSTETVVTYEEVPLEPENTAPPVKFDDKGKRYNPGIGLEGLDS [r1_270_JUSTAS]", "no (0)"],
  ["SAGGMVVVKIRIEREVDGKVEEVELVLEVELDEDGKVSAEELKALLKELLPENVKITEIEVVEPGEEPSAGG [r13_504_TrROS_Hall]", "yes (1)"],
  ["SAGGSAGGSPVVVIEVPAEDLSPEDIKALLAAAPDENAVIVITNPDGEKRTLVFTPDGRIEPLSAGGSAGGS [r12_1054_TrROS_Hall]", "no (0)"],
  ["SAGGSAGGSAGGPEVEVFYERGPDGPLKVVVVVRNPDTPEVTVLVADLEPEKALEFLEALSAGGSAGGSAGG [r7_105_TrMRF]", "no (0)"],
  ["SAGGSAKKKKTLKITLIIKVKTKEEAEKLAEELAEKLKKLLPEGAKIKVKVTVNKETGYVTVEIELSAGGSA [r15_981_TrROS_Hall]", "yes (1)"],
  ["SAGMIEISEEGDTLTVTVPPGVSLEEVREYVEKKYPGMDLQEITETALPDGTTTVTFNVKKNPPSPKLLSAG [r5_110_JUSTAS]", "no (0)"],
  ["SAGGSFSVDVPPDATVEVEEKVKRPDGSEVHLKITITRLPTSGKVLVTVEDNPPEKGSTTKEEIVPLESAGG [r13_934_JUSTAS]", "no (0)"],
  ["SAGGSAGGSAGGMLVDPSTNTVTINLPPNTTLTFNYPDSTLTVTVPANETLTVTFPLTSSAGGSAGGSAGGS [r10_464_JUSTAS]", "no (0)"],
  ["SAGGSAGGSAGMYVYKITYPTPSGGASEKLYPSSVPLEEVLKEAEERGAVEIEILPESELSAGGSAGGSAGG [r11_490_JUSTAS]", "no (0)"],
  ["SAPPKTRTREIEIRFDDYYVRIKITWTKDGNLKLDIEFQGPNPVMREQIKDFLEELNPDFEITDIEVYRSAG [r14_611_TrROS]", "yes (1)"],
  ["SAPKILKVETFPDGSIKVEIPLPETGAIVTITVDPDGNVVVEFYPPKSGKPVRKTIPGKTIEEVLKELGSAG [r14_760_TrMRF]", "no (0)"],
  ["SAVPLSEEELEALLEEKAKEKAEEILKENPELPPGAVIKIKVEYEQEVVLEDKVEPVKYEREVEYKVPLSAG [r14_486_JUSTAS]", "no (0)"],
  ["SAGGSAGGSAIWIPSPEAADEIMDILAKKNGYKINIEPIGQDEDGGMVYEIEIVPPGQPLTSAGGSAGGSAG [r3_59_TrROS]", "no (0)"],
  ["SAGGSAGGSAMTIKVEVTVKVKVKLENGETKEKEVKVTVEIELPPLTKEELEKNKELLKKLLSAGGSAGGSA [r18_114_TrROS_Hall]", "yes (1)"],
  ["SAGGSAGGSAPPLDRVFVEVRVEPGEDAGVVVTHPDGRVLTAPADADVVFEFHPDVPVLVADASAGGSAGGS [r12_553_TrMRF]", "no (0)"],
  ["SAGLAAAIAAAGAIAEALGVTVRVEVFRDGELVGTFEIPAPVGDGEPVSLEVRLPDPEVTVRFELRIPGSAG [r14_728_TrMRF]", "yes (1)"],
  ["SAGGSAGGSAGGSIEIEITVELEDGYYLRISARFELNEDGSLKLEIKIELIKIEPGQELSAGGSAGGSAGGS [r10_241_TrROS_Hall]", "yes (1)"],
  ["SAGGSAGGIKELLEALGFEVVDVEPTDNKFMIMIRNPEEGRVVVIEIEWDGPPKIEIHPMPPNASAGGSAGG [r6_195_TrROS]", "yes (1)"],
  ["SMSMEEAMEWAEENPDRPVIFINPEDWYIMIYNPKKGKMEMRPITSPEEALEELDDENIDRIYIVPADEISA [r9_775_TrROS]", "yes (1)"],
  ["SAGGSAGGSDVEVTVTLEYDEETGVLYVTAEVRDKETGRTVRVVVKFDLETNEWEVVAVEVLPSAGGSAGGS [r20_163_TrROS_Hall]", "yes (1)"]
]}
